B1: PhoQ; a variant is named by its letters at X, in order, P23837 (parent)
chain: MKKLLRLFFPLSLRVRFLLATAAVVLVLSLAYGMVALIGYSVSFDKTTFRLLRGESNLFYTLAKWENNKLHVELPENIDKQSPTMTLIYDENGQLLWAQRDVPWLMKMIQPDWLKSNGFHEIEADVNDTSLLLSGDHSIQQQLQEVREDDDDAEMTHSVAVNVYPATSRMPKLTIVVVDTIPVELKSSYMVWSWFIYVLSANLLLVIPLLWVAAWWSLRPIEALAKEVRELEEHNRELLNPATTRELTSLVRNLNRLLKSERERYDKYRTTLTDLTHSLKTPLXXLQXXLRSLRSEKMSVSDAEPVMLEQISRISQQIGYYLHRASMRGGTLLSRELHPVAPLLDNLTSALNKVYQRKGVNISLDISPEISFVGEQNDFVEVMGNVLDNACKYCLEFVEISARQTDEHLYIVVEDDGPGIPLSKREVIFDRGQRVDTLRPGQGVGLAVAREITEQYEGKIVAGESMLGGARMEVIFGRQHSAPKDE

Variants of: B1
Assay: enrichment ratio after two sorts for PhoP signalling (ratio (wild type AVST 3.29)); higher = more functional
Conditions: with PhoP (E. coli)
Whole data set: some 140,000 sequences, median “enrichment ratio after two sorts for PhoP signalling” near 0, cut for the highest 2% near 11. For the sample, the highest values were picked, then their nearest neighbours and some sequences at random.
EXPERIMENTAL_READOUT: enrichment ratio
Answers are plain numbers.

> print(dat)
   variant.designation  quantitative.readout
1                 TGVY                  2.88
2                 MLLM                  7.62
3                 AGLQ                  13.5

Below are 6 variants. Give each one its enrichment ratio.
1. AGVA
2. ESAV
3. VNCT
4. SLAI
5. AYLQ
6. TLNS

Result:
[1.62, 2.02, 1.24, 15.7, 0.526, 6.81]
